Examples of compounds with documented residual activity follow.
Biological target: DYRK2 (human) (UniProt Q92630)
Sequence (Q92630 whole entry, looked up): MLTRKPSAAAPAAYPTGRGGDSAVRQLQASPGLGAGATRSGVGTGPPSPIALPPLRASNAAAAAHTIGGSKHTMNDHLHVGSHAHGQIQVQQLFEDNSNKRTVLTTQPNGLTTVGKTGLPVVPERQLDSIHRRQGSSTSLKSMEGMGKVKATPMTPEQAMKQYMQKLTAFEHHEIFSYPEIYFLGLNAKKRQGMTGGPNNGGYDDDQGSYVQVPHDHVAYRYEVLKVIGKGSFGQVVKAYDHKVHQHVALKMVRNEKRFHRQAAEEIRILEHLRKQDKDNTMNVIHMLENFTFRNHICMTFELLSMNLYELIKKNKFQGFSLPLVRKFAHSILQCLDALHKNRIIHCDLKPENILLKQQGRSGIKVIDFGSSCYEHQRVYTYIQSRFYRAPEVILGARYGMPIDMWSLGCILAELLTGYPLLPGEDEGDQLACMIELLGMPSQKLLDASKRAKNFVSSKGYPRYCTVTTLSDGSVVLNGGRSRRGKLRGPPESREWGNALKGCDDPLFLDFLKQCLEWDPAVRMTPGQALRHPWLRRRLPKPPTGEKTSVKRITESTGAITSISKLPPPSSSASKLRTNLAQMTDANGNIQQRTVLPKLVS
Assay: radiometric filter-binding kinase assay
Settings: compound 0.01 µM
All answers are understood in %, so give the number only.

Reference set (5 entries):
Q: Give the observed residual activity of "CNc1nc(-c2ccc3c(N)n[nH]c3c2)cc(N2C[C@@H](C(=O)NC3CCCCC3)CC[C@H]2C)n1" for DYRK2 (human) (UniProt Q92630).
A: 100

Q: Give the observed residual activity of "C/C(=C1/C(=O)Nc2ccc(NC(N)=O)cc21)c1ccc[nH]1" for DYRK2 (human) (UniProt Q92630).
A: 59

Q: Give the observed residual activity of COc1cc(O)c2c(c1)[C@H]1OC1C[C@H](O)[C@H](O)C(=O)/C=C\C[C@H](C)OC2=O (stereo partly specified) for DYRK2 (human) (UniProt Q92630).
A: 109

Q: Give the observed residual activity of CNC(=O)C1[C@H]2O[C@@](C)([C@@H]1N)n1c3ccccc3c3c4c(c5c6ccccc6n2c5c31)C(=O)NC4 (stereo partly specified) for DYRK2 (human) (UniProt Q92630).
A: 41

Q: Give the observed residual activity of "O=C(Nc1nc2cc(C(F)(F)F)cc(NC3CC3)n2n1)c1cccnc1" for DYRK2 (human) (UniProt Q92630).
A: 104

More entries:
Q: Give the observed residual activity of "COc1ccc(N(C(=O)Nc2c(C)cccc2C)c2cc(Nc3ccc(N4CCN(C)CC4)cc3)ncn2)c(OC)c1" for DYRK2 (human) (UniProt Q92630).
A: 89
